Where do the numbers come from? From paper PMC12598832.

HCT116 Selectivity Index (SI): recorded values
- Tested on: HCT116 (colorectal carcinoma) cell line
- assay_summary: MTT cell proliferation assay, HCT116
- Type: cell-based
- test_context: versus HEK293
measurement_label: HCT116 Selectivity Index (SI)

- molecule: "CCOC(=O)c1ccc2[nH]c(-c3ccc(O)c(O)c3)nc2c1"
  measurement_label: "HCT116 Selectivity Index (SI)"
  reported_result: 3.13
- molecule: "CCOC(=O)c1ccc2[nH]c(-c3cccc(OC)c3)nc2c1"
  measurement_label: "HCT116 Selectivity Index (SI)"
  reported_result: 4.08
- molecule: "CCOC(=O)c1ccc2[nH]c(-c3ccc4c(c3)OCO4)nc2c1 [BZD9Q1, reference compound]"
  measurement_label: "HCT116 Selectivity Index (SI)"
  reported_result: 1.60
- molecule: "N.N.[Cl][Pt][Cl] [Cisplatin, reference compound]"
  measurement_label: "HCT116 Selectivity Index (SI)"
  reported_result: 0.43
- molecule: "CCOC(=O)c1ccc2[nH]c(-c3ccccc3O)nc2c1"
  measurement_label: "HCT116 Selectivity Index (SI)"
  reported_result: 3.34

* * *

- Tested on: HCT116 (colorectal carcinoma) cell line
- assay_summary: MTT cell proliferation assay, HCT116
- Format: cell-based
- test_context: MTT, 72 h; read-out: HCT116 IC50 [μM] ± SEM
measurement_label: IC50 (µM)

- molecule: "N.N.[Cl][Pt][Cl] [Cisplatin, reference compound]"
  reported_result: 8.24

* * *

inhibition at 50 µM: recorded values
- target_desc: SIRT2 human recombinant (Homo sapiens)
- Construct: purchased Cayman Chemicals, Ann Arbor 700,280
- Sequence (Q8IXJ6 1-389): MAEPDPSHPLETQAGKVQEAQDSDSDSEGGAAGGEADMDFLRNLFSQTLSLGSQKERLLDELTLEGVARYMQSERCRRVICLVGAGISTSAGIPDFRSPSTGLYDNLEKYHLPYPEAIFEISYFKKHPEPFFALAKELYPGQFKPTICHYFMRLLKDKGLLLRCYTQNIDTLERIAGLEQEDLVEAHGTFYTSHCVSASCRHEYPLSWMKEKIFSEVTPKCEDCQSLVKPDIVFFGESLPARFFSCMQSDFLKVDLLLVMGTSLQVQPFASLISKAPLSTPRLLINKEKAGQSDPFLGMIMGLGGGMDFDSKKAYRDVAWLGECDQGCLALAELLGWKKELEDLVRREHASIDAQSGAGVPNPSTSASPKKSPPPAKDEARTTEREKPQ
- assay_summary: SIRT2 Direct Fluorescent Screening Assay Kit (Cayman)
- Format: biochemical
- test_context: compound 50 μM, preliminary screening; read-out: Percentage SIRT2 inhibition (%)
measurement_label: inhibition at 50 µM (%)

- compound: "CCOC(=O)c1ccc2[nH]c(-c3ccc(O)c(OC)c3)nc2c1 [Compound V3]"
  measurement_label: "inhibition at 50 µM"
  relation_operator: "="
  reported_result: 61.9
- compound: "CCOC(=O)c1ccc2[nH]c(-c3ccc(O)c(O)c3)nc2c1 [Compound V9]"
  measurement_label: "inhibition at 50 µM"
  relation_operator: "="
  reported_result: 39.3
- compound: "CCOC(=O)c1ccc2[nH]c(-c3ccc(OC)c(OC)c3)nc2c1 [Compound V8]"
  measurement_label: "inhibition at 50 µM"
  relation_operator: "="
  reported_result: 25.5
- compound: "CCOC(=O)c1ccc2[nH]c(-c3ccccc3O)nc2c1 [Compound V7]"
  measurement_label: "inhibition at 50 µM"
  relation_operator: ">"
  reported_result: 95
- compound: "CCOC(=O)c1ccc2[nH]c(-c3cccc(O)c3)nc2c1 [Compound V1]"
  measurement_label: "inhibition at 50 µM"
  relation_operator: "="
  reported_result: 25.4
- compound: "CCOC(=O)c1ccc2[nH]c(-c3ccc(O)cc3O)nc2c1 [Compound V2]"
  measurement_label: "inhibition at 50 µM"
  relation_operator: ">"
  reported_result: 95
- compound: "CCOC(=O)c1ccc2[nH]c(-c3ccccc3OC)nc2c1 [Compound V6]"
  measurement_label: "inhibition at 50 µM"
  relation_operator: "="
  reported_result: 11.8

* * *

- target_desc: SIRT2 human recombinant (Homo sapiens, UniProt Q8IXJ6)
- Construct: purchased Cayman Chemicals, Ann Arbor 700,280
- Sequence (Q8IXJ6 1-389): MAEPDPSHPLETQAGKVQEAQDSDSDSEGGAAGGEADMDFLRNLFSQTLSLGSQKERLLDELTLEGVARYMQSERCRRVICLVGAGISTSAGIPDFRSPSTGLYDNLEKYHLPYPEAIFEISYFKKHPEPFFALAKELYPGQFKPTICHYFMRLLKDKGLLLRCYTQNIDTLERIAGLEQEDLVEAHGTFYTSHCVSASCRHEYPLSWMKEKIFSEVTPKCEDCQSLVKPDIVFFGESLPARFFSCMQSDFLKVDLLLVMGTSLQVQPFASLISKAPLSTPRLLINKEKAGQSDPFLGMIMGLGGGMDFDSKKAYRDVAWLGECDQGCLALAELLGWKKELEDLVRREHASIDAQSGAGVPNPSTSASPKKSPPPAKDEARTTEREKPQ
- assay_summary: SIRT2 Direct Fluorescent Screening Assay Kit (Cayman)
- Assay type: biochemical
- test_context: compound 50 μM, preliminary screening
measurement_label: Percentage SIRT2 inhibition (%)

- molecule: "CCOC(=O)c1ccc2[nH]c(-c3cccc(OC)c3)nc2c1 [Compound V5]"
  reported_result: "no SIRT2 inhibition"
- molecule: "CCOC(=O)c1ccc2[nH]c(-c3ccc(OC)c(O)c3)nc2c1 [Compound V4]"
  reported_result: "no SIRT2 inhibition"
